Test system: Saccharomyces cerevisiae
method_summary: protein stability index of tFT-peptide fusion (C-terminal peptide) (PSI (0-1 scale)); higher = more stable (slower turnover);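 further: PSI is a weighted mean of sequencing reads over stability bins, variants kept only with over 10 reads, mCherry proximal and sfGFP distal, peptide attached via GGGS linker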
experimental_context: genetic background: doa10 deletion; temperature: 30 C
Think of 0.2 as a floor: if protein stability index stands on it or above, it is condition met; beneath it, condition not met.

Below, 5 sequences whose answers are already recorded.
[
  {
    "residue_sequence": "VGGSRGARLGVG",
    "class_assignment": "condition met"
  },
  {
    "residue_sequence": "MALAVRVVKCGA",
    "class_assignment": "condition met"
  },
  {
    "residue_sequence": "FFYRFQDLPRIC",
    "class_assignment": "condition not met"
  },
  {
    "residue_sequence": "VCILLVAWCLMG",
    "class_assignment": "condition not met"
  },
  {
    "residue_sequence": "FLLPILSSSPVL",
    "class_assignment": "condition met"
  }
]

Qu. Entry "WFSMSRLWVFYS" : is its protein stability index no less than 0.2?
Ans. condition not met

Qu. Entry "DVVVIFGILCYC" : is its protein stability index no less than 0.2?
Ans. condition not met

Qu. Entry "LYVLNILSFVCV" : is its protein stability index no less than 0.2?
Ans. condition not met

Qu. Entry "SLSIFCLMLMLF" : is its protein stability index no less than 0.2?
Ans. condition met

Qu. Entry "VIYYVRVGLVLS" : is its protein stability index no less than 0.2?
Ans. condition not met

Qu. Entry "VVFSLLLWLFIS" : is its protein stability index no less than 0.2?
Ans. condition not met

Qu. Entry "LWVTRVYCLLVC" : is its protein stability index no less than 0.2?
Ans. condition not met

Qu. Entry "SSVFRLKGLMFL" : is its protein stability index no less than 0.2?
Ans. condition met

Qu. Entry "RAPPPSSLLSPP" : is its protein stability index no less than 0.2?
Ans. condition met

Qu. Entry "LCFFLAFSFVFF" : is its protein stability index no less than 0.2?
Ans. condition met

* * *

System: Saccharomyces cerevisiae
method_summary: protein stability index of tFT-peptide fusion (C-terminal peptide) (PSI (0-1 scale)); higher = more stable (slower turnover)
experimental_context: genetic background: wild type; temperature: 30 C
Think of 0.7 as a floor: if protein stability index stands on it or above, it is True; beneath it, False.

[
  {
    "residue_sequence": "PFYTKSASPSSR",
    "class_assignment": "False"
  },
  {
    "residue_sequence": "TFPHSWHISSVP",
    "class_assignment": "False"
  },
  {
    "residue_sequence": "PPPPRSSPSPLP",
    "class_assignment": "False"
  },
  {
    "residue_sequence": "AGLTLLWPLCLL",
    "class_assignment": "False"
  },
  {
    "residue_sequence": "RFLAHLVRPFCG",
    "class_assignment": "True"
  },
  {
    "residue_sequence": "CGSGWDRSVGIG",
    "class_assignment": "False"
  },
  {
    "residue_sequence": "GRCWVMCSEGEK",
    "class_assignment": "False"
  },
  {
    "residue_sequence": "VLLRSTRRPLPC",
    "class_assignment": "False"
  },
  {
    "residue_sequence": "GFWLVSCPWLLF",
    "class_assignment": "False"
  },
  {
    "residue_sequence": "SPSSTSPAPFPL",
    "class_assignment": "False"
  }
]

Qu. Entry "YTGRFDSSDIWY" : is its protein stability index no less than 0.7?
Ans. True

Qu. Entry "GVLRDRAFLTCA" : is its protein stability index no less than 0.7?
Ans. False

Qu. Entry "PPVLPPPAPLPP" : is its protein stability index no less than 0.7?
Ans. False

Qu. Entry "FFFFSMFSFFIP" : is its protein stability index no less than 0.7?
Ans. False

Qu. Entry "SIKGLVRSIALN" : is its protein stability index no less than 0.7?
Ans. False

Qu. Entry "KKVLKFTKKKKP" : is its protein stability index no less than 0.7?
Ans. False

Qu. Entry "FPISPSQSQSLP" : is its protein stability index no less than 0.7?
Ans. True
